Target: activated blood coagulation factor X (FXa) (Homo sapiens)
Sequence (P00742 235-488 limits assumed): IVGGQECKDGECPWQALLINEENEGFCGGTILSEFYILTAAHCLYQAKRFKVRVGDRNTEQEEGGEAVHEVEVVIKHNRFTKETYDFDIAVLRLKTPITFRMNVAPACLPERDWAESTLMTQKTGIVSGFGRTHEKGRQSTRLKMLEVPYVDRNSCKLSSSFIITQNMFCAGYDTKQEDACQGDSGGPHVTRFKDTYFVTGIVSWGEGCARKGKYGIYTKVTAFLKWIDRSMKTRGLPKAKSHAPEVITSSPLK
Sequence (P00742 41-179 partner limits assumed): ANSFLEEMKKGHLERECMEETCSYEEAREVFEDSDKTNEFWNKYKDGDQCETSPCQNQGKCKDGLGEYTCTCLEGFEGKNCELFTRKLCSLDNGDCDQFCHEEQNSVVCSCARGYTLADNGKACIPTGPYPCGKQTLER
Test: FXa inhibitory effect
experimental readout: IC50

IC50 reported for this compound CN(C)C(=O)c1ccc2oc(C(=O)Nc3ccc(Cl)cn3)c(NC(=O)[C@H]3CC[C@H](N(C)C=O)CC3)c2c1 : < 100 nM
